This collection of values is drawn from PubChem BioAssay (NCI).

System: OVCAR-8 ovarian
Assay: NCI-60 one-dose screen, 48 h (100 = growth as untreated, 0 = no growth, -100 = all killed)
Measurement setup: 10 µM unless noted
Protocol: Growth inhibition of the OVCAR-8 human tumor cell line is measured as a screen for anti-cancer activity. Cells are grown in 96 well plates and exposed to the test compound for 48 hours. Compounds are tested at a single concentration, which is 10^-5 M for most compounds. The reported endpoint is percent growth (GI% or GIPRCNT), where numbers from 0 - 100% represent growth inhibition, and numbers from -100% - 0 represent cell death. For example, a value of 40 represents 60% growth inhibition. […]
This is part of a sample that, as a whole, favours compounds with a hit. Of some 83,000 tested, about 20% had one in any assay.
Note to self: use met only for growth readings below 80%; a reading exactly at 80% still gets not met.

Compound: COc1ccc(-c2nc(SCCC(C)C)nc(N/N=C\c3cccc(Cl)c3)c2C#N)cc1
Assigned category: met
//
Compound: O=C1NC(=Nc2ccc(Cl)cc2)S/C1=C\c1cn(-c2ccccc2)nc1-c1ccccc1
Assigned category: met
//
Compound: COc1ccc(C(=O)COc2ccc(/C=C3\Oc4ccccc4C3=O)cc2)cc1
Assigned category: not met
//
Compound: C=CCOC1=CC(=O)c2ccccc2C1=O
Assigned category: met
//
Compound: COc1cccc(-c2nn(-c3ccccc3)cc2-c2ccnc(NCCNC(=O)c3ccccc3)c2)c1
Assigned category: met
//
Compound: CN(C)CCC=C1c2ccccc2C(C)(C)c2ccccc21
Assigned category: not met
//
Compound: CN1CCN(C(=O)c2c3c(n4ccccc24)C(=O)c2ncccc2C3=O)CC1
Assigned category: met
//
Compound: COc1ccc(-c2nc3c(N)c(CO)c(C)nc3o2)cc1
Assigned category: not met
//
Compound: O=C(NCCCNc1cc(-c2cn(-c3ccccc3)nc2-c2cccc(O)c2)ccn1)c1cccc(O)c1
Assigned category: met
//
Compound: Cc1ccc(Nc2nc(N)nc(CSCC(=O)NN)n2)cc1
Assigned category: not met
//
Compound: CC1CC(C(C)(C)C)C(=O)C(C(C)(C)C)C1 (stereo not given)
Assigned category: not met
//
Compound: C[C@]12CC[C@@H]3c4cc(OC(F)F)c(O)cc4CC[C@H]3[C@@H]1CC[C@@H]2OS(N)(=O)=O
Assigned category: met
//
Compound: CC1(C)CC(=O)CC2(C1)N=C(N)Nc1nc3ccccc3n12 (stereo not given)
Assigned category: not met
//
Compound: COC(=O)[C@]12CC[C@@H](C)[C@H](C)[C@@H]1C1=CC[C@@H]3[C@@]4(C)C(C=O)=C[C@@](C)(COC(=O)c5ccco5)C4=CC[C@@]3(C)[C@]1(C)CC2
Assigned category: met
//
Compound: C=CCn1c(C)nc2cc(Nc3nc(Cl)nc4ccccc34)ccc21
Assigned category: not met
//
Compound: COc1ccc(-c2cc(-c3cc(OC)c(OC)c(OC)c3)c(C#N)c(N3CCOCC3)n2)cc1O
Assigned category: met
//
Compound: COc1cc(C2CC(=O)Nc3c2c(C)nn3-c2nc3ccccc3[nH]2)cc2c1OCC(=O)N2 (stereo not given)
Assigned category: met
//
Compound: O=S(=O)(O)c1ccc(N/N=C/c2ccccc2Cl)cc1
Assigned category: not met
//
Compound: O=C(NCCNc1cc(-c2cn(-c3ccccc3)nc2-c2cccc(O)c2)ccn1)Nc1ccccc1
Assigned category: met
//
Compound: Cc1cc(NCCCCNc2ccnc3cc(Cl)ccc23)nc(Nc2ccc(C(=O)N3CCCCC3)cc2)n1
Assigned category: met
//
Compound: Cn1c(=O)c2[nH]c(NN)nc2n(C)c1=O
Assigned category: not met
//
Compound: CC1CC2Oc3ccc(Cl)cc3C(=O)N2O1 (stereo not given)
Assigned category: not met
//
Compound: CCOC(=O)c1c2c(n3ccc(NC(=O)OC(C)(C)C)cc13)C(=O)c1ncccc1C2=O
Assigned category: met
//
Compound: COc1ccc2c(c1)O/C(=C\c1cccc(OCC(=O)Nc3nc4ccccc4s3)c1)C2=O
Assigned category: met
//
Compound: CC/C=C\C[C@H](O)C/C=C1/C(=O)C=C[C@@H]1C/C=C\CCCCO
Assigned category: met
//
Compound: O=C(COc1ccc(/C=C2\Oc3ccccc3C2=O)cc1)Nc1nc2ccccc2s1
Assigned category: met
//
Compound: CNC(=O)NCC1OC(n2cnc3c(NC(=O)Nc4ccccc4)ncnc32)C(O[Si](C)(C)C(C)(C)C)C1CC(=O)N(C)OC (stereo not given)
Assigned category: met
//
Compound: O=c1cc(-c2ccc(Cl)cc2)[nH]c2ccccc12
Assigned category: not met
//
Compound: Cc1ccc(Cl)c(NS(=O)(=O)c2ccc(-c3cnc(C4CC4)o3)cc2)c1
Assigned category: met

====

Test system: M14 melanoma
Assay: NCI-60 one-dose screen, 48 h (100 = growth as untreated, 0 = no growth, -100 = all killed)
Measurement setup: 10 µM unless noted
About 83,000 compounds went through this panel and 20% of them were active in at least one assay; those are over-represented in the sample as a whole. Active and inactive are the calls of the source. The calls were made as follows: active = growth percent below 10; inactive = the rest.
Listed next: entries and their corresponding growth.
Property label: growth

Molecule: COc1cc(/C=C/C(=O)c2cccc(-n3cc(-c4ccccc4)[nH]c3=O)c2)ccc1O
Property label: growth
Endpoint result: 84.7% (inactive)

Molecule: CC/C=C\CCC/C=C1/C(=O)C=C[C@@H]1C/C=C\CCCC(=O)O
Property label: growth
Endpoint result: 54.6% (inactive)

Molecule: COc1ccc(Cl)cc1NC(=O)C(Br)C(Br)C(=O)O (stereo unspecified)
Property label: growth
Endpoint result: 75.9% (inactive)

Molecule: CCOC(=O)c1c(-c2ccc(Cl)cc2)c(C#N)c(=O)n(-c2ccccc2CC)c1N
Property label: growth
Endpoint result: 105% (inactive)

Molecule: C=C1C(=O)O[C@H]2[C@H]1CC/C(COC(=O)C(=O)c1c[nH]c3ccccc13)=C\CC[C@@]1(C)O[C@@H]21
Property label: growth
Endpoint result: -57.2% (active)

Molecule: CCc1c2c(nc3ccc(OC(=O)NCc4ccc(B5OC(C)(C)C(C)(C)O5)cc4)cc13)-c1cc3c(c(=O)n1C2)COC(=O)[C@]3(O)CC
Property label: growth
Endpoint result: -16.1% (active)

Molecule: CC1CC2Oc3ccc(Cl)cc3C(=O)N2O1 (stereo unspecified)
Property label: growth
Endpoint result: 107% (inactive)

Molecule: COc1cc(/C=N/n2c(CN3CCOCC3)nc3ccccc3c2=O)cc(OC)c1OC
Property label: growth
Endpoint result: 102% (inactive)

Molecule: N#Cc1c(N)nc(NCCO)nc1-c1ccc(F)cc1
Property label: growth
Endpoint result: 105% (inactive)

Molecule: O=c1[nH]nc(-c2ccccc2)c2c(-c3ccccc3)onc12
Property label: growth
Endpoint result: 45.4% (inactive)

Molecule: Cc1ccc(Nc2nc(N)nc(CSCC(=O)NN)n2)cc1
Property label: growth
Endpoint result: 114% (inactive)

====

System: UO-31 renal
Assay: NCI-60 one-dose screen, 48 h (100 = growth as untreated, 0 = no growth, -100 = all killed)
Measurement setup: 10 µM unless noted
The panel holds about 83,000 compounds, 20% with a hit somewhere; the sample as a whole holds those more often.
Please use TRUE whenever growth is not below 60%, and FALSE whenever it is.

Compound: Cc1cc(C)c2c(-c3nnc(N)s3)cc(=O)oc2c1
Assigned category: TRUE
--
Compound: N#CC1=C(/N=C/c2ccccc2)Oc2c(ccc3ccccc23)C1c1ccccc1 (stereo not given)
Assigned category: FALSE
--
Compound: COc1cc(C2CC(c3ccc(Nc4ccnc5cc(Cl)ccc45)cc3)=NN2C=O)cc(OC)c1OC (stereo not given)
Assigned category: TRUE
--
Compound: CCc1c2c(nc3ccc(OC(=O)NCc4ccc(B5OC(C)(C)C(C)(C)O5)cc4)cc13)-c1cc3c(c(=O)n1C2)COC(=O)[C@]3(O)CC
Assigned category: FALSE
--
Compound: COc1ccc(-c2c(N)n[nH]c2-c2ccc(Cl)cc2O)cc1OC
Assigned category: TRUE

====

System: NCI-H460 lung
Assay: NCI-60 one-dose screen, 48 h (100 = growth as untreated, 0 = no growth, -100 = all killed)
Measurement setup: 10 µM unless noted
Compounds without any hit were thinned out: in the full panel of roughly 83,000, 20% have a hit.
Please use met whenever growth is not below 10%, and not met whenever it is.

Compound: NC(N)=NN=C(c1ccccc1)c1ccccc1
Assigned category: met
--
Compound: COc1ccc(-c2nc3c(c(=O)n2C(C)=O)C(c2ccc(Cl)cc2)c2sc4c(Cl)cccc4c2O3)cc1 (stereo not given)
Assigned category: not met
--
Compound: Nc1nc(N)c2c(n1)NC(c1ccccc1)C1CCc3ccccc3C1=N2 (stereo not given)
Assigned category: met
--
Compound: Cc1cc(NCc2cc(Nc3ccnc4cc(Cl)ccc34)ccc2F)nc(N2CCCC2)n1
Assigned category: not met
--
Compound: CC/C=C\C/C=C\C[C@H](O)C/C=C1/C(=O)C=C[C@@H]1C/C=C\CCCC(=O)O
Assigned category: met
--
Compound: CCN(CC)c1ccc(C(=O)c2ccc(N(CC)CC)cc2)cc1
Assigned category: not met
--
Compound: CCCCn1c(=O)c2c(nc(NCCc3ccc(O)c(O)c3)n2CCC)n(CCCC)c1=O
Assigned category: met
--
Compound: COc1cc(/C=C/C(=O)N2CCN(C(=O)c3cc(OC)c(OC)c(OC)c3)CC2)ccc1OCCCN1C(=O)c2cccc3cccc(c23)C1=O
Assigned category: met
--
Compound: COC(=O)[C@]12CC[C@@H](C)[C@H](C)[C@@H]1C1=CC[C@@H]3[C@@]4(C)C(C=O)=C[C@@](C)(COC(=O)/C=C/c5ccccc5)[C@@H]4[C@H](O)C[C@@]3(C)[C@]1(C)CC2
Assigned category: not met
--
Compound: COC(=O)c1c2c(c(C)[n+]([O-])c1C)C(=O)C(NCc1ccc(F)cc1)=CC2=O
Assigned category: met
